# ASSAYED TARGET: T1, human PILRA R78 on cells (human, UniProt Q9UKJ1 20-303)
# T1 construct: also called hPILRA R78; PILRA 78R
# T1 sequence (Q9UKJ1 20-303 limits assumed): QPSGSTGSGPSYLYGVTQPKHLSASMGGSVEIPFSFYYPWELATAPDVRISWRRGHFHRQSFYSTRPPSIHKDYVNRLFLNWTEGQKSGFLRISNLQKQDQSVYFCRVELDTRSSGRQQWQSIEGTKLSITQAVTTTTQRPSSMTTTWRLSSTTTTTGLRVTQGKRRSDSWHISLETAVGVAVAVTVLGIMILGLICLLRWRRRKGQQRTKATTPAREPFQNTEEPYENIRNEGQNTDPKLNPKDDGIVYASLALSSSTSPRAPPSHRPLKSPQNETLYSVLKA
# TEST NAME: flow cytometry on HEK293 PILRA R78 cells with sialidase treatment; with sialidase treatment
Give measured EC50 for each item. Keep answers brief.
Report as a plain number; the unit nM is understood.

Query: Returns the measured EC50 for the input binder. Input: Anti-PILRA antibody clone 6 (antibody, V domains shown, the printed lines of the VL are out of order there) VH: EVQLQQSGPELQRPGASVKLSCKASGYTFTEYYMYWVKQRPKQGLELIGRIDPEDGGTDYIEKFKNKATLTADTSSNTAYMQLSSLTSEDTATYFCATTIRGTVFAFWGQGTLVTVSS VL: DIQMTQSPASLSASLGETVTIECRASEDIFNGLAWYQQKPGKSPHLLIYNAKTLHTGVPSRFSGSGSGSQYSLKINSLQSEDVASYFCQQYYDYPLTFGSGTKLEIK
Reply: 0.3

Query: Quick one: EC50 of Anti-PILRA antibody clone 1 (antibody, V domains shown) VH: EVQLVESGGGLVQPGRSLRLSCAVSGFTFDDYAMHWVRQAPGKGLEWVSGFSWNSGSIGYPDSVKGRFTISRDNAKNSLYLQMNSLRAEDTAFYYCAKDKSISAAGRFDYWGQGTLVTVSS VL: DIQMTQSPSSLSASVGDRVTITCQASRRINNYLNWYQQKPGKAPKLLIYDASNLETGVPSRFTGSGSGTDFTLTISSLQPEDIATYYCQQYDNLPLTFGGGTKIKIK ?
Reply: 5.6

Query: Bench note: what EC50 did Anti-PILRA antibody clone 5 (antibody, human IgG1, kappa, L234A L235A, V domains shown, also called Ab; Clone 5; Ab.5) VH: QVQLVQSGAEVKKPGASVRVSCKASGYTFIGFYIHWVRQAPGQGLEWMGWINPESGDTTYAQKFQGRVTMTTDTSINTAYMDLNRLRSDDSAVYFCARGNWNFPDTFDFWGQGTMVIVSS VL: DIQMTQSPSSLSASVGDRVTITCRSSQSISIYLNWHQQIPGKAPKLLIYVASSLQSGIPSRFSGRGSGTEFTLTISSLQPEDFATYYCQQSYSAPFTFGPGTKVDIKR show?
Reply: 0.9
